GFP fluorescence, lower = active (kMESF (background-subtracted)) overview
# Protocol details: TOR pathway RPL19A-GFP modulators, concentration series – cell-based, S. cerevisiae, flow cytometry, MLPCN hits, dose response (AID 2740);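 also: background is signal of the same compound in parental non-GFP s288c yeast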
# Assay conditions: S. cerevisiae RPL19A-GFP strain, flow cytometry fluorescence, 3 h; at 33 µM (top of the series)
Active and inactive are the calls of the source.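 The calls were made as follows: active = compounds whose fitted half-maximal concentration for changing the GFP signal is at or below a set limit; inactive = the rest.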

Some compounds with known GFP fluorescence, lower = active (kMESF (background-subtracted)) results, for comparison:
>>> print(df.to_string())
                                   compound     result_value
0       O=C(OCn1ncc(Br)c(Br)c1=O)c1ccccc1Cl  44.4 (inactive)
1        COc1ccc(C=C2C(=O)c3ccccc3C2=O)cc1O  38.1 (inactive)
2      Oc1cc(-c2ccc(N3CCCCC3)nc2)cc2cccnc12  46.1 (inactive)
3  CCc1nc2ccccc2c(=O)n1NC(=O)c1c(O)c2cccc3c2n(c1=O)CCC3  25.5 (inactive)
4   CS(=O)(=O)c1nc(-c2ccccc2)cc(C(F)(F)F)n1  31.9 (inactive)
5  Cc1cc(S(=O)(=O)ON2C(=O)c3ccccc3C2=O)ccc1F  43.3 (inactive)
6        N#C/C(=C\c1cc(Br)ccc1F)C(=O)NC1CC1  24.2 (inactive)
7      N/C(=N\OC(=O)c1ccccc1Cl)c1ccc(Cl)cc1  38.2 (inactive)

IN: Please look up its GFP fluorescence, lower = active (kMESF (background-subtracted)): `O=C(/C=C/c1ccc(Br)cc1)NC(=S)NNC(=O)c1ccco1`
OUT: 50.2 (inactive)

IN: Please look up its GFP fluorescence, lower = active (kMESF (background-subtracted)): `CCN(CC)c1ccc2cc(-c3nc4ccccc4[nH]3)c(=O)oc2c1`
OUT: 42.6 (inactive)

---

GFP fluorescence, lower = active (kMESF (background-subtracted)) overview
# Protocol details: TOR pathway RPL19A-GFP modulators, concentration series – cell-based, S. cerevisiae, flow cytometry, MLPCN hits, dose response (AID 2740);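 also: background is signal of the same compound in parental non-GFP s288c yeast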
# Assay conditions: S. cerevisiae RPL19A-GFP strain, flow cytometry fluorescence, 3 h; at 33 µM (top of the series)
Give the figure only, with no unit attached.

Some compounds with known GFP fluorescence, lower = active (kMESF (background-subtracted)) results, for comparison:
>>> df
                              sample_smiles  result_value
0  Cc1c(NC2=C(Cl)C(=O)N(c3ccccc3Cl)C2=O)c(=O)n(-c2ccccc2)n1C          38.7
1  CCN1/C(=C/c2ccc3cc(C)ccc3[n+]2CC)Sc2ccc3sccc3c21          31.5
2     O=C(OCn1ncc(Br)c(Br)c1=O)c1c(F)cccc1F          37.9
3           CCn1c(=O)c(C(C)=O)c(O)c2ccccc21            47

IN: Please look up its GFP fluorescence, lower = active (kMESF (background-subtracted)): `COc1cccc(N=Cc2nc(-c3ccccc3)oc2OC(C)=O)c1`
OUT: 41.9

---

# Protocol details: TOR pathway RPL19A-GFP modulators, concentration series – cell-based, S. cerevisiae, flow cytometry, MLPCN hits, dose response (AID 2740);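 also: background is signal of the same compound in parental non-GFP s288c yeast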
# Assay conditions: S. cerevisiae RPL19A-GFP strain, flow cytometry fluorescence, 3 h; at 33 µM (top of the series)
Metric name: GFP fluorescence, lower = active (kMESF (background-subtracted))
Give the figure only, with no unit attached.

Molecule	Result value
Cc1cc(C(=O)COC(=O)c2ccc[nH]c2=O)c(C)n1-c1ccccc1F	28.1
O=C(Nc1ccc(NC(=O)c2cc3ccccc3o2)cc1)c1ccc2c(c1)OCCO2	40.1
O=C(NC(=S)NNC(=O)c1ccc(Cl)cc1Cl)c1cccnc1	18.7
Oc1c(CN2CCCCC2)cc(Br)c2cccnc12	43.4
CCN(CC)c1ccc(/C=C2/C(=O)c3ccc(C(=O)O)cc3C2=O)cc1	38.3
Cc1cccc(C(=O)NC(=S)NNC(=O)Cc2ccccc2)c1	52.4

IN: Please look up its GFP fluorescence, lower = active (kMESF (background-subtracted)): `O=c1/c(=C/c2cccc3ccccc23)sc2ncnn12`
OUT: 50.3

IN: Please look up its GFP fluorescence, lower = active (kMESF (background-subtracted)): `N/C(Cc1ccc(Cl)cc1)=N\OC(=O)c1cccc2ccccc12`
OUT: 45.3

IN: Please look up its GFP fluorescence, lower = active (kMESF (background-subtracted)): C=C1C(O)[C@@H]2O[C@]3(CC[C@H](/C=C/C(C)[C@@H]4CC(C)=CC5(O[C@H](C[C@@](C)(O)C(=O)O)CCC5O)O4)O3)CC[C@H]2O[C@@H]1C(O)CC(C)[C@H]1OC2(CCCCO2)CCC1C (stereo partly drawn)
OUT: 41.3
